- protocol: Solubility in simulated gastric/intestinal fluids and pH media
- Assay type: physicochemical
- condition-context: pH 4, aqueous buffer, thermodynamic from solid, Batch 3, pH 4.0, 4 hr
Counter-ions that a name gives are not always drawn.
attribute-measured: solubility at 4 h

compound="Cc1c(F)cccc1NC(=O)Nc1ccc(Cl)c(S(=O)(=O)[C@H]2CCCNC2)c1O [HBr Salt]" attribute_measured="solubility at 4 h" assay_value="670 µg/mL"

###

- protocol: Solubility in simulated gastric/intestinal fluids and pH media
- Type: physicochemical
- condition-context: pH 2, aqueous buffer, thermodynamic from solid, pH 2.0, 0.5 hr
attribute-measured: solubility at 0.5 h (µg/mL)

compound="Cc1c(F)cccc1NC(=O)Nc1ccc(Cl)c(S(=O)(=O)[C@H]2CCCNC2)c1O [Micronised free base, reference compound]" attribute_measured="solubility at 0.5 h" assay_value=601
